# Test system: SMN2-linked luciferase-reporter gene construct
# test summary: SMN Splice Reporter Assay (SMN2-linked luciferase reporter)
# Type: cell-based
# details: fold-increase of luciferase over baseline reading of transformed cells without any test compound
recorded metric: Fold Increase
Answer as a number with no unit attached.

If you can, please state the reported Fold Increase value of Cn1ccc2cc(N3Cc4ccc(O)cc4C3=O)ccc21 . 1.542

Thanks! And CC(C)Oc1ccc2c(c1)C(=O)N(c1ccc3sccc3c1)C2 ? 1.082

Proceed to O=C1c2cc(OC(F)F)ccc2CN1c1ccc2sccc2c1 1.801

Would you kindly repeat that for COc1ccc2c(c1)C(=O)N(c1ccc3ccn(C(C)C)c3c1)C2 ? 1.273

// repeat for COc1ccc2c(c1)C(=O)N(c1ccc3ccn(C(C)=O)c3c1)C2 and report 1.414

Please give the result for COc1ccc2c(c1)C(=O)N(c1ccc3c(c1)c(C)cn3C)C2 too. 1.639

Queued: Cn1ccc2cc(N3Cc4ccc(Br)cc4C3=O)ccc21 1.491

Also check Cn1ccc2ccc(N3Cc4cccc(Cl)c4C3=O)cc21 1.642

Lookup O=C1c2cc(O)ccc2CN1c1ccc2sccc2c1 1.769

====

# Test system: SMN2-linked luciferase-reporter gene construct
# test summary: SMN Splice Reporter Assay (SMN2-linked luciferase reporter)
# Format: cell-based
# details: cervical carcinoma cell lines, SMN2 splice luciferase reporter
recorded metric: log10(EC50) (log10 of the value in nM)
Parameter value (number): base-10 log of EC50 in nM.

Data request, read-out log10(EC50), for Cn1ccc2cc(N3Cc4c(Cl)cccc4C3=O)ccc21 2.83

What about Cn1ccc2ccc(N3Cc4ccc(N5CCCC5)cc4C3=O)cc21 ? 1.67

Follow-up item: COc1ccc2c(c1)C(=O)N(c1ccc3sc(C)cc3c1)C2 1.38

Next record, please: Cn1ccc2cc(N3Cc4ccc(S(C)(=O)=O)cc4C3=O)ccc21 2.75

Next record, please: CCCCc1ccc2c(c1)C(=O)N(c1ccc3c(c1)cc(C)n3C)C2 2.82

Here is the next compound: O=C1c2ccccc2CN1c1ccc2c(c1)OCO2 3.39

Next compound up: Cn1ccc2cc(N3Cc4cccc(Br)c4C3=O)ccc21 2.66

Another: Cn1ccc2ccc(N3Cc4cc(Br)ccc4C3=O)cc21 2.66

Please answer likewise for CC(C)Oc1ccc2c(c1)C(=O)N(c1ccc3cc[nH]c3c1)C2 0.48

Then COc1ccc2c(c1)C(=O)N(c1ccc3nccn3c1)C2 ? 3.20

Try the compound COc1ccc2c(c1)C(=O)N(c1ccc3cc(C)[nH]c3c1)C2 1.70

Then this compound: COc1ccc2c(c1)C(=O)N(c1ccc3c(c1)OCC(=O)N3)C2 1.89

Same read-out for CCCOc1ccc2c(c1)C(=O)N(c1ccc3ccn(C)c3c1)C2 ? 2.16

Note, next up: Cc1cccc2c1CN(c1ccc3c(ccn3C)c1)C2=O 2.62

What do you have for CC(=O)Nc1ccc2c(c1)C(=O)N(c1ccc3c(ccn3C)c1)C2 ? 2.16

Then what about the compound Cn1ccc2ccc(N3Cc4ccc(-c5cccnc5)cc4C3=O)cc21 ? 2.66

Cool, now COc1ccc2c(c1)CN(c1ccc3ccsc3c1)C2=O 2.05

Please do the same for Cc1cccc2c1C(=O)N(c1ccc3ccn(C)c3c1)C2 as well. 2.38

And the next one, CCCc1ccc2c(c1)C(=O)N(c1ccc3sccc3c1)C2 ? 1.54

Entry CC(C)C(=O)Nc1ccc2c(c1)C(=O)N(c1ccc3c(ccn3C)c1)C2 please 2.44

Input CCCOc1ccc2c(c1)C(=O)N(c1ccc3c(ccn3C)c1)C2 1.90

Try this compound next: COc1cccc2c1CN(c1ccc3c(ccn3C)c1)C2=O 2.93

What would you report for CN1CCCc2cc(N3Cc4ccc(OC(F)F)cc4C3=O)ccc21 ? 2.31

Entry to check: COc1ccc2c(c1)C(=O)N(c1ccc3scc(Br)c3c1)C2 2.58

Item: O=C1c2cc(Br)ccc2CN1c1ccc2sccc2c1 1.97

What about this compound? CC(C)Cc1ccc2c(c1)C(=O)N(c1ccc3c(ccn3C)c1)C2 1.56

# iterate: CC(C)(C)OC(=O)Cc1ccc(N2Cc3ccccc3C2=O)nc1 3.82

Try CC(=O)Nc1ccc2c(c1)C(=O)N(c1ccc3c(ccn3C(C)C)c1)C2 next. 1.80

What do you have for COc1ccc2c(c1)C(=O)N(c1ccc3ccn(CC#N)c3c1)C2 ? 3.44

Next compound up: COc1ccc2c(c1)C(=O)N(c1ccc3cc(C)n(C)c3c1)C2 2.54

Now the same for Cn1ccc2cc(N3Cc4cc(Cl)ccc4C3=O)ccc21 2.12

Check CC(C)n1ccc2cc(N3Cc4ccc(Cl)cc4C3=O)ccc21 too. 0.95

Next entry: COc1ccc2c(c1)C(=O)N(c1ccc3nc[nH]c3c1)C2 2.62

And the next one, Cc1cc2cc(N3Cc4ccc(O)cc4C3=O)ccc2n1C ? 2.48

Proceed to COc1ccc2c(c1)C(=O)N(c1ccc3ncncc3c1)C2 3.03

// same read-out, input: Cn1ccc2ccc(N3Cc4cccc([N+](=O)[O-])c4C3=O)cc21 2.87

// query: COc1ccc2c(c1)C(=O)N(c1ccc3nccc(C)c3c1)C2 1.89
